target: DLL3 endogenously expressed on NCI-H82 cells (UniProt Q9NYJ7); assay: FACS on NCI-H82 cells; antibody 20 nM
Sequence (Q9NYJ7 27-618): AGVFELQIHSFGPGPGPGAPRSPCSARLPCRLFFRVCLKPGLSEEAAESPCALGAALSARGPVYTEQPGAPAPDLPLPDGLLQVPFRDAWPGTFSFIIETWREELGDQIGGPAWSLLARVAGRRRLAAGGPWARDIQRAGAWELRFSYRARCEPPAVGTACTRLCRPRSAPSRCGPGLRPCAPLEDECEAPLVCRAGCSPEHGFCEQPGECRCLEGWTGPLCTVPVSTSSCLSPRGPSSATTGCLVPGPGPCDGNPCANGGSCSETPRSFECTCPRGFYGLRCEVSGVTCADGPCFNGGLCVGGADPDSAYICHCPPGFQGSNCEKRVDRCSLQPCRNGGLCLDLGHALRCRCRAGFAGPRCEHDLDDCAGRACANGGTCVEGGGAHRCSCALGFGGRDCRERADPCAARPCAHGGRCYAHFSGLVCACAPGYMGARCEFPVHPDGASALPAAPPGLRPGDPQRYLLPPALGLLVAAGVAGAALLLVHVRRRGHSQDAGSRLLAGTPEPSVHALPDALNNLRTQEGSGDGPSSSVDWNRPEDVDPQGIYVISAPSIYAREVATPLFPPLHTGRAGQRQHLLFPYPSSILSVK
observed property: MFI
Response field accepts a number only; no unit should be typed.

Example cases with answers are listed next.
Hab006VL4VH1-hFc (scFv, part only; not given: scFv linker and human IgG1 Fc, V domains shown, not shown: another chain or arm of the molecule; a dimerising Fc or GST; small tags and cut ends) VL: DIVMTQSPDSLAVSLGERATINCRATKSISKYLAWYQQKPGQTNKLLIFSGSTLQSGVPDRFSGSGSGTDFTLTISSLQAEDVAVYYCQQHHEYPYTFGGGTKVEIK VH: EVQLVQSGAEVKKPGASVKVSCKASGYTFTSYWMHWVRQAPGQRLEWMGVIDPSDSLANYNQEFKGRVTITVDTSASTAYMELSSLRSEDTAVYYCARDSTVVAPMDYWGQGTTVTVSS; 504
Hab014VL3VH1-hFc (scFv, part only; not given: VL-VH linker and human IgG1 Fc, V domains shown, not shown: another chain or arm of the molecule; a dimerising Fc or GST; small tags and cut ends) VL: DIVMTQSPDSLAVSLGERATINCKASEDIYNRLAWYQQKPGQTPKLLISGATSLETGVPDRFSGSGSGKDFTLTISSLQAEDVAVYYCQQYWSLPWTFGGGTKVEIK VH: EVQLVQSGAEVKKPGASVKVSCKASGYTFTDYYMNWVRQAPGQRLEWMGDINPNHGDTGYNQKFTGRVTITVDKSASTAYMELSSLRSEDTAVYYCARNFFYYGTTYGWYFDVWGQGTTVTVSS; 732

Switching to the query record.
Annotate the binder Hab014VL1VH2-hFc (scFv, part only; not given: VL-VH linker and human IgG1 Fc, V domains shown, not shown: another chain or arm of the molecule; a dimerising Fc or GST; small tags and cut ends) VL: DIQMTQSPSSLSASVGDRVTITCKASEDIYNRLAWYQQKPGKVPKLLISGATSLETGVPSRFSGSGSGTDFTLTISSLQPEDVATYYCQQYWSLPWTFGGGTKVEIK VH: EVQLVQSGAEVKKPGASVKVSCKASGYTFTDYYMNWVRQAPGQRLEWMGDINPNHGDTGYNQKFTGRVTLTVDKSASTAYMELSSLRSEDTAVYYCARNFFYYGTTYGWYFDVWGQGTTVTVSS with its measured MFI. 784

FYI, the data here is from patent EP4786492A1.
